Entries and their measured viability, T/C follow.
test system: 616215-338-R-J1-PDC complex spheroid viability; test: Anticancer human tumor 616215-338-R-J1-PDC patient-derived colon adenocarcinoma cell line growth inhibition [POLQ]; conditions: second compound 1 µM; first compound 1 µM; hits give low values
measured_endpoint: viability, T/C (%)

INSERT INTO results (compound, measured_endpoint, unit_tag, assay_result) VALUES
  ('COc1ccc([C@@H](O)c2cc(-c3ncnc4cc(N5CCOCC5)ccc34)c(F)cc2Cl)nn1 + Cc1cccc(N(C)C(=O)C2C(O)CCN2c2nc(C)cc(C(F)(F)F)c2C#N)c1', 'viability, T/C', '%', 122),
  ('C=CCn1c(=O)c2cnc(Nc3ccc(N4CCN(C)CC4)cc3)nc2n1-c1cccc(C(C)(C)O)n1 + COC1C(OC(N)=O)C(O)C(Oc2ccc3c(O)c(NC(=O)c4ccc(O)c(CC=C(C)C)c4)c(=O)oc3c2C)OC1(C)C', 'viability, T/C', '%', 61.5),
  ('CC1COCCN1c1cc(-c2ccnn2C)c2ccnc(-c3ccn[nH]3)c2n1 (stereo not drawn) + Nc1ccc(C#CCN(C(=O)Cc2ncc(C(F)(F)F)cc2C(F)(F)F)c2ccc(F)cc2)nn1', 'viability, T/C', '%', 26.8);

###

tested on: 616215-338-R-J1-PDC complex spheroid viability; experiment: Anticancer human tumor 616215-338-R-J1-PDC cell line growth inhibition [POLQ]; settings: second compound 10 µM; first compound 0.1 µM; hits give low values;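 further: spheroids exposed to compounds for one week before readout; percent viability relative to DMSO vehicle wells taken as 100%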
Entries and their measured viability, T/C follow.
measured_endpoint: viability, T/C (%)

INSERT INTO assay_data (compound, assay_result) VALUES
  ('COc1cc2cc(C(=O)CCC(=O)O)sc2cc1OC + Nc1ccc(C#CCN(C(=O)Cc2ncc(C(F)(F)F)cc2C(F)(F)F)c2ccc(F)cc2)nn1', 91.1),
  ('CCc1c2c(nc3ccc(O)cc13)-c1cc3c(c(=O)n1C2)COC(=O)[C@]3(O)CC + Cc1cccc(N(C)C(=O)C2C(O)CCN2c2nc(C)cc(C(F)(F)F)c2C#N)c1', 39),
  ('Cn1ncnc1[C@H]1c2n[nH]c(=O)c3cc(F)cc(c23)N[C@@H]1c1ccc(F)cc1 + Cc1cccc(N(C)C(=O)C2C(O)CCN2c2nc(C)cc(C(F)(F)F)c2C#N)c1', 98.6),
  ('C=CC(=O)N1CCN(c2nc(=O)n(-c3c(C)ccnc3C(C)C)c3nc(-c4c(O)cccc4F)c(F)cc23)C(C)C1 (configuration not stated) + Nc1ccc(C#CCN(C(=O)Cc2ncc(C(F)(F)F)cc2C(F)(F)F)c2ccc(F)cc2)nn1', 94.4),
  ('C=CCn1c(=O)c2cnc(Nc3ccc(N4CCN(C)CC4)cc3)nc2n1-c1cccc(C(C)(C)O)n1 + COC1C(OC(N)=O)C(O)C(Oc2ccc3c(O)c(NC(=O)c4ccc(O)c(CC=C(C)C)c4)c(=O)oc3c2C)OC1(C)C', 103),
  ('COc1cc(C2c3cc4c(cc3C(OC3OC5COC(C)OC5C(O)C3O)C3COC(=O)C23)OCO4)cc(OC)c1O (configuration not stated) + Cc1cccc(N(C)C(=O)C2C(O)CCN2c2nc(C)cc(C(F)(F)F)c2C#N)c1', 102),
  ('CC(C)n1c(=O)n(C)c2cnc3cc(F)c(-c4ccc(OCCCN5CCCCC5)nc4)cc3c21 + Nc1ccc(C#CCN(C(=O)Cc2ncc(C(F)(F)F)cc2C(F)(F)F)c2ccc(F)cc2)nn1', 79.3),
  ('C=CCn1c(=O)c2cnc(Nc3ccc(N4CCN(C)CC4)cc3)nc2n1-c1cccc(C(C)(C)O)n1 + Nc1ccc(C#CCN(C(=O)Cc2ncc(C(F)(F)F)cc2C(F)(F)F)c2ccc(F)cc2)nn1', 79.3),
  ('CCc1cc2c(N3CCc4c(cc(Cn5ccnc5)cc4-c4cn(C)nc4C(F)(F)F)C3=O)ccnc2c(OC)n1 + Cc1cccc(N(C)C(=O)C2C(O)CCN2c2nc(C)cc(C(F)(F)F)c2C#N)c1', 88.6),
  ('COc1cccc(OCCCN)c1-c1cc(Nc2cnc(C#N)cn2)n[nH]1 + Cc1cccc(N(C)C(=O)C2C(O)CCN2c2nc(C)cc(C(F)(F)F)c2C#N)c1', 38.3),
  ('CCc1cc2c(N3CCc4c(cc(Cn5ccnc5)cc4-c4cn(C)nc4C(F)(F)F)C3=O)cc(C)nc2c(OC)n1 + Nc1ccc(C#CCN(C(=O)Cc2ncc(C(F)(F)F)cc2C(F)(F)F)c2ccc(F)cc2)nn1', 98.2),
  ('CC[C@@]1(O)C(=O)OCc2c1cc1n(c2=O)Cc2cc3c(CN(C)C)c(O)ccc3nc2-1 + Cc1cccc(N(C)C(=O)C2C(O)CCN2c2nc(C)cc(C(F)(F)F)c2C#N)c1', 64.4);

###

tested on: 616215-338-R-J1-PDC complex spheroid viability; assay: Anticancer human tumor 616215-338-R-J1-PDC cell line growth inhibition [POLQ]; conditions: second compound 0.1 µM; first compound 0.316 µM; hits give low values;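 further: spheroids exposed to compounds for one week before readout; percent viability relative to DMSO vehicle wells taken as 100%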
The threshold is 70%. Values of viability, T/C beneath it are tagged condition met; values meeting or exceeding it are tagged condition not met.

INSERT INTO results (compound, discrete_label) VALUES
  ('COc1cccc2c1C(=O)c1c(O)c3c(c(O)c1C2=O)CC(O)(C(=O)CO)CC3OC1CC(N)C(O)C(C)O1 (stereo not given) + Nc1ccc(C#CCN(C(=O)Cc2ncc(C(F)(F)F)cc2C(F)(F)F)c2ccc(F)cc2)nn1', 'condition met'),
  ('O=C(c1cc(Cc2n[nH]c(=O)c3ccccc23)ccc1F)N1CCN(C(=O)C2CC2)CC1 + Cc1cccc(N(C)C(=O)C2C(O)CCN2c2nc(C)cc(C(F)(F)F)c2C#N)c1', 'condition not met'),
  ('CCc1c2c(nc3ccc(O)cc13)-c1cc3c(c(=O)n1C2)COC(=O)[C@]3(O)CC + Cc1cccc(N(C)C(=O)C2C(O)CCN2c2nc(C)cc(C(F)(F)F)c2C#N)c1', 'condition met'),
  ('CNCc1ccc(-c2[nH]c3cc(F)cc4c3c2CCNC4=O)cc1 + COC1C(OC(N)=O)C(O)C(Oc2ccc3c(O)c(NC(=O)c4ccc(O)c(CC=C(C)C)c4)c(=O)oc3c2C)OC1(C)C', 'condition not met'),
  ('COc1cccc2c1C(=O)c1c(O)c3c(c(O)c1C2=O)CC(O)(C(=O)CO)CC3OC1CC(N)C(O)C(C)O1 (stereo not given) + Cc1cccc(N(C)C(=O)C2C(O)CCN2c2nc(C)cc(C(F)(F)F)c2C#N)c1', 'condition not met'),
  ('COc1cccc(OCCCN)c1-c1cc(Nc2cnc(C#N)cn2)n[nH]1 + COC1C(OC(N)=O)C(O)C(Oc2ccc3c(O)c(NC(=O)c4ccc(O)c(CC=C(C)C)c4)c(=O)oc3c2C)OC1(C)C', 'condition met'),
  ('O=C(Nc1ccc(O)c(NS(=O)(=O)c2ccc(F)cc2)c1)c1ccc(-c2ccccc2)cc1 + COC1C(OC(N)=O)C(O)C(Oc2ccc3c(O)c(NC(=O)c4ccc(O)c(CC=C(C)C)c4)c(=O)oc3c2C)OC1(C)C', 'condition not met'),
  ('CC1COCCN1c1cc(-c2ccnn2C)c2ccnc(-c3ccn[nH]3)c2n1 (stereo not given) + Nc1ccc(C#CCN(C(=O)Cc2ncc(C(F)(F)F)cc2C(F)(F)F)c2ccc(F)cc2)nn1', 'condition met'),
  ('CCc1cc2c(N3CCc4c(cc(Cn5ccnc5)cc4-c4cn(C)nc4C(F)(F)F)C3=O)ccnc2c(OC)n1 + Nc1ccc(C#CCN(C(=O)Cc2ncc(C(F)(F)F)cc2C(F)(F)F)c2ccc(F)cc2)nn1', 'condition not met'),
  ('COc1ccc([C@@H](O)c2cc(-c3ncnc4cc(N5CCOCC5)ccc34)c(F)cc2Cl)nn1 + Cc1cccc(N(C)C(=O)C2C(O)CCN2c2nc(C)cc(C(F)(F)F)c2C#N)c1', 'condition not met'),
  ('CCc1c2c(nc3ccc(O)cc13)-c1cc3c(c(=O)n1C2)COC(=O)[C@]3(O)CC + COC1C(OC(N)=O)C(O)C(Oc2ccc3c(O)c(NC(=O)c4ccc(O)c(CC=C(C)C)c4)c(=O)oc3c2C)OC1(C)C', 'condition met'),
  ('O=c1[nH]cc(F)c(=O)[nH]1 + COC1C(OC(N)=O)C(O)C(Oc2ccc3c(O)c(NC(=O)c4ccc(O)c(CC=C(C)C)c4)c(=O)oc3c2C)OC1(C)C', 'condition not met'),
  ('C#Cc1c(F)ccc2cc(O)cc(-c3ncc4c(N5CC6CCC(C5)N6)nc(OCC56CCCN5CC(F)C6)nc4c3F)c12 (stereo not given) + COC1C(OC(N)=O)C(O)C(Oc2ccc3c(O)c(NC(=O)c4ccc(O)c(CC=C(C)C)c4)c(=O)oc3c2C)OC1(C)C', 'condition not met');

###

test system: 616215-338-R-J1-PDC complex spheroid viability; experiment: Anticancer human tumor 616215-338-R-J1-PDC cell line growth inhibition [POLQ]; settings: second compound 0.0316 µM; first compound 3.16 µM; hits give low values;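 further: spheroids exposed to compounds for one week before readout; percent viability relative to DMSO vehicle wells taken as 100%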
measured_endpoint: viability, T/C (%)

INSERT INTO results (compound, measured_endpoint, assay_result) VALUES
  ('CCc1cc2c(N3CCc4c(cc(Cn5ccnc5)cc4-c4cn(C)nc4C(F)(F)F)C3=O)cc(C)nc2c(OC)n1 + COC1C(OC(N)=O)C(O)C(Oc2ccc3c(O)c(NC(=O)c4ccc(O)c(CC=C(C)C)c4)c(=O)oc3c2C)OC1(C)C', 'viability, T/C', 60.5),
  ('C=CC(=O)N1CCN(c2nc(=O)n(-c3c(C)ccnc3C(C)C)c3nc(-c4c(O)cccc4F)c(F)cc23)C(C)C1 (configuration not stated) + Nc1ccc(C#CCN(C(=O)Cc2ncc(C(F)(F)F)cc2C(F)(F)F)c2ccc(F)cc2)nn1', 'viability, T/C', 89.2),
  ('C#Cc1c(F)ccc2cc(O)cc(-c3ncc4c(N5CC6CCC(C5)N6)nc(OCC56CCCN5CC(F)C6)nc4c3F)c12 (configuration not stated) + COC1C(OC(N)=O)C(O)C(Oc2ccc3c(O)c(NC(=O)c4ccc(O)c(CC=C(C)C)c4)c(=O)oc3c2C)OC1(C)C', 'viability, T/C', 113),
  ('CC1COCCN1c1cc(C2(S(C)(=N)=O)CC2)nc(-c2ccnc3[nH]ccc23)n1 (configuration not stated) + COC1C(OC(N)=O)C(O)C(Oc2ccc3c(O)c(NC(=O)c4ccc(O)c(CC=C(C)C)c4)c(=O)oc3c2C)OC1(C)C', 'viability, T/C', 98.5),
  ('CC1COCCN1c1cc(-c2ccnn2C)c2ccnc(-c3ccn[nH]3)c2n1 (configuration not stated) + Nc1ccc(C#CCN(C(=O)Cc2ncc(C(F)(F)F)cc2C(F)(F)F)c2ccc(F)cc2)nn1', 'viability, T/C', 25.9),
  ('CC1COCCN1c1cc(C2(O)CC3CCC(C2)O3)c2cnn(-c3ccn[nH]3)c2n1 (configuration not stated) + Cc1cccc(N(C)C(=O)C2C(O)CCN2c2nc(C)cc(C(F)(F)F)c2C#N)c1', 'viability, T/C', 56.2),
  ('CCc1cc2c(N3CCc4c(cc(Cn5ccnc5)cc4-c4cn(C)nc4C(F)(F)F)C3=O)cc(C)nc2c(OC)n1 + Nc1ccc(C#CCN(C(=O)Cc2ncc(C(F)(F)F)cc2C(F)(F)F)c2ccc(F)cc2)nn1', 'viability, T/C', 51);
